Hello, the source for this data is paper PMC9920077, in case you need it.

Test system: E. coli ATCC 25922
Assay: MIC against E. coli ATCC 25922, CO-ADD
Assay type: cell-based
Conditions: Escherichia coli, ATCC25922; E. coli ATCC 25922; mean of two experiments; read-out: MIC E. c
Text: Antimicrobial evaluation of the pure compounds against A. baumannii ATCC 19606, Candida albicans ATCC 90028, Cryptococcus neoformans ATCC 208821, E. coli ATCC 25922, K. pneumoniae ATCC 700603, P. aeruginosa ATCC 27853, and S. aureus ATCC 43300 (MRSA) was undertaken at the Community for Open Antimicrobial Drug Discovery at The University of Queensland (St. Lucia, Queensland, Australia) according to standard protocols as previously described.
# MIC listing for each entry below

Would you kindly share the measured MIC for `C/C1=C\C[C@]2(C)C(=O)C(O)=C([C@H](C)CO)[C@H]2C/C=C(\C)[C@@H](O)CC/C(C)=C/CC1` ?
> 79 µM

So what's the measured MIC for this one? C[C@@H]1CCC(=O)CCC(=O)O[C@H](C)CC[C@H](O)/C=C/C(=O)O1 [compound 4, tetrahydropyrenophorin]
> 102 µM

Recorded MIC of CC(O)CCC(O)/C=C/C(=O)O (stereo not drawn) [compound 1, (E)-4,7-dihydroxyoct-2-enoic acid] , please.
> 184 µM

---

assay: in vitro; settings: human
Assay Readout: CC50

Please give the measured CC50 for this compound: `C[C@@H]1C[C@H]2O[C@@H]2/C=C\C=C\C(=O)Cc2c(Cl)c(O)cc(O)c2C(=O)O1`
> 88 µM

---

assay: Cytotoxicity on HEK293 human embryonic kidney cells
Assay Readout: CC50
// unit must come after the numeric part

Below, each entry is followed by its recorded CC50 result.
> print(dat)
                                   molecule  assay.readout  recorded.value
1  C[C@H]1CCC/C=C/[C@@H]2C[C@H](O)C[C@H]2[C@H](O)/C=C/C(=O)O1           CC50          890 nM
2  COc1c(CC(C)O)c2c3c(CC(C)O)c(OC)c(=O)c4c(O)cc5c(c6c(cc(O)c(c1=O)c62)OCO5)c43 (stereo not drawn)           CC50        25300 nM

State the recorded CC50 for this entry: C[C@H]1CCC/C=C/C(=O)c2c(O)cc(O)cc2CC(=O)O1 [compound 6, dehydro-curvularin]
1270 nM

---

System: C. albicans ATCC 90028
Assay: MIC against C. albicans ATCC 90028, CO-ADD
Assay type: cell-based, Candida albicans
Details: Candida albicans, ATCC90028; C. albicans ATCC 90028; mean of two experiments; read-out: MIC C. a
Source text: Antimicrobial evaluation of the pure compounds against A. baumannii ATCC 19606, Candida albicans ATCC 90028, Cryptococcus neoformans ATCC 208821, E. coli ATCC 25922, K. pneumoniae ATCC 700603, P. aeruginosa ATCC 27853, and S. aureus ATCC 43300 (MRSA) was undertaken at the Community for Open Antimicrobial Drug Discovery at The University of Queensland (St. Lucia, Queensland, Australia) according to standard protocols as previously described.
Assay Readout: MIC

Consider the following illustrative entries.
> print(dat)
                                   compound  assay.readout  recorded.value
1  OC(Cn1cncn1)(Cn1cncn1)c1ccc(F)cc1F [fluconazole, reference compound]            MIC          0.4 µM
2  CC(O)CCC(O)/C=C/C(=O)O (centres unmarked) [compound 1, (E)-4,7-dihydroxyoct-2-enoic acid]            MIC        > 184 µM
3  C[C@H]1CCC/C=C/[C@@H]2C[C@H](O)C[C@H]2[C@H](O)/C=C/C(=O)O1            MIC           57 µM
4  CC1CCCCCC(=O)c2c(O)cc(O)cc2CC(=O)O1 (centres unmarked)            MIC        > 109 µM
5  C[C@@H]1CCC(=O)CCC(=O)O[C@H](C)CC[C@H](O)/C=C/C(=O)O1 [compound 4, tetrahydropyrenophorin]            MIC        > 102 µM

Give C. albicans ATCC 90028 MIC for `C/C1=C\C[C@]2(C)C(=O)C(O)=C([C@H](C)CO)[C@H]2C/C=C(\C)[C@@H](O)CC/C(C)=C/CC1`
> 79 µM

Request - read-out MIC | tested on C. albicans ATCC 90028 | compound COc1c(CC(C)O)c2c3c(CC(C)O)c(OC)c(=O)c4c(O)cc5c(c6c(cc(O)c(c1=O)c62)OCO5)c43 (centres unmarked)
> 60 µM

Write down the reported MIC of `C[C@@H]1C[C@H]2O[C@@H]2/C=C\C=C\C(=O)Cc2c(Cl)c(O)cc(O)c2C(=O)O1` , test system: C. albicans ATCC 90028.
44 µM
